Consider the following compounds; for each one, report its INHIBITION.
# Tested on: Plasmodium berghei
# assayDetails: Screen against P. berghei liver stage (PbLuc), transformed with Luciferase, at 2uM
# Type: functional, HepG2
# experimentalSetup: tested at 2 uM
The whole screen tested about 68,000 compounds, of which about 2,700 (4%) showed an effect of 50% or more. This excerpt belongs to a sample that is enriched for strong results.

Problem: Reported INHIBITION, compound CCCNC(=O)N1CCc2ccc(S(=O)(=O)N3CCN(C)CC3)cc2C1 : ____
Solution: 30.62%

Problem: Now consider CN(C)C(=O)C1OC2(CCN(C(=O)c3ccoc3)CC2)c2ccccc21 (stereo unspecified) .
Solution: 25.43%

Problem: Now consider Cc1ccc(C(=O)N2CC3(CCCCC3)c3cc(C(=O)O)ccc32)cn1 .
Solution: -46.89%

Problem: Now consider CC(C)c1nccc(C2CC(=O)Nc3n[nH]c(C4CCC4)c32)n1 (stereo unspecified) .
Solution: 53.33%

Problem: Now consider CCCc1nn(C2CCN(C(C)C)C2=O)c(=O)o1 (stereo unspecified) .
Solution: -78.95%

Problem: Now consider c1ccc(O[C@H]2COCCN(CC3CC3)C2)cc1 .
Solution: 20.5%

Problem: Now consider COC(=O)C(C)NC(=O)CSCc1nc(O)c2cc(C(C)C)sc2n1 (stereo unspecified) .
Solution: 52.08%

Problem: Now consider CC(C)S(=O)(=O)N1CCCC(c2cccc(C(=O)O)c2)C1 (stereo unspecified) .
Solution: 49.88%

Problem: Now consider COCCNC(=O)CSCc1nc(O)c2cc(C(C)C)sc2n1 .
Solution: -43.28%

Problem: Now consider Cc1ccc(S(=O)(=O)N(C)CC(C)O)c(F)c1 (stereo unspecified) .
Solution: 56.69%

Problem: Now consider COC(=O)C(C)(C)NC(=O)C1CC(=O)N(CC(C)C)C1 (stereo unspecified) .
Solution: 49.16%

Problem: Now consider Cc1csc(N2CCCN(c3cc(C)nc(C)c3C#N)CC2)n1 .
Solution: -20.21%

Problem: Now consider CCc1c(C(=O)O)nnn1-c1ccc(C)cc1C .
Solution: -54.75%

Problem: Now consider CC(C)N1CCC2(CC1)CN(C)C(=O)C[C@H]2C(F)(F)F .
Solution: -24.39%

Problem: Now consider CCCc1n[nH]c(C2CN(C(=O)Cn3ccccc3=O)CCO2)n1 (stereo unspecified) .
Solution: -53.98%

Problem: Now consider COC(=O)C(C)(C)NC(=O)c1cnc(Cc2ccc(F)cc2)s1 .
Solution: -32.82%

Problem: Now consider Cc1ccc(N2C[C@H]3CCC[C@@H](CN4CCOCC4)[C@H]3C2)nn1 .
Solution: -7.49%

Problem: Now consider COC(=O)CNC(=O)CSCc1nc(O)c2cc(C(C)C)sc2n1 .
Solution: 5.36%

Problem: Now consider CC(C)N1[C@H](CN2CCCC2)C[C@@H]2CN(Cc3ccoc3)CC[C@@H]21 .
Solution: 1.92%

Problem: Now consider Cc1c(F)cccc1S(=O)(=O)NCC(C)(C)CC(C)O (stereo unspecified) .
Solution: 15.2%

Problem: Now consider CC(c1ccco1)N(C(=O)c1cccc(C#N)c1)C1CC1 (stereo unspecified) .
Solution: 32.93%

Problem: Now consider CCCc1nn(C2CCN(C3CC3)C2=O)c(=O)o1 (stereo unspecified) .
Solution: -8.5%

Problem: Now consider CC1CCN(CCNC(=O)c2cncnc2C(C)C)CC1 .
Solution: 25.35%

Problem: Now consider CSCc1noc(Cn2ncn3cccc3c2=O)n1 .
Solution: 46.15%

Problem: Now consider CC(C)CCN1C[C@@H]2C[C@H](C(=O)Nc3cccnc3)[C@H](C1)O2 .
Solution: 26.76%

Problem: Now consider COc1nc2ccccc2cc1C1CC(=O)Nc2n[nH]c(C3CCC3)c21 (stereo unspecified) .
Solution: 13.51%

Problem: Now consider Cc1nc(C2CCCN2CCCS(=O)(=O)N(C)C)no1 (stereo unspecified) .
Solution: 9.36%

Problem: Now consider CCN1C[C@@H]2C[C@H](C(=O)Nc3ccccc3)[C@H](C1)O2 .
Solution: 37.65%

Problem: Now consider CC(C)CCN1C[C@@H]2C[C@H](C(=O)Nc3ccccc3)[C@H](C1)O2 .
Solution: 73.15%

Problem: Now consider CCc1ccc(C2CC(=O)Nc3cc(NS(C)(=O)=O)ccc32)o1 (stereo unspecified) .
Solution: -24.85%

Problem: Now consider COC(=O)C(C)(C)NC(=O)C1CC(=O)N(CC(F)(F)F)C1 (stereo unspecified) .
Solution: 54.62%

Problem: Now consider O=C(Nc1nc2c(s1)CN(S(=O)(=O)C1CC1)CC2)Nc1ccccc1F .
Solution: 47.9%

Problem: Now consider O=C(NCc1ccccc1)[C@H]1C[C@H]2CN(S(=O)(=O)C3CC3)C[C@@H]1O2 .
Solution: 14.94%

Problem: Now consider CN1CCC2(CC1)CN(C)C(=O)C[C@@H]2C(F)(F)F .
Solution: 6.22%

Problem: Now consider CCCc1n[nH]c(C2CN(C(=O)CCn3ccccc3=O)CCO2)n1 (stereo unspecified) .
Solution: 60.09%

Problem: Now consider COCCn1ccc(NC(=O)Nc2ccncc2)n1 .
Solution: 1.94%

Problem: Now consider CCn1nc(C)c2c1cnn2CCNS(=O)(=O)Cc1ccccc1 .
Solution: 16.97%

Problem: Now consider CC(=O)N1C(CN2CCCC2)C[C@@H]2CN(C(=O)c3ccoc3)CC[C@@H]21 (stereo partly specified) .
Solution: 4%

Problem: Now consider c1csc(CN2C[C@@H]3OCCN(CC4CCCO4)[C@@H]3C2)c1 (stereo partly specified) .
Solution: 20.13%

Problem: Now consider CC(c1ccco1)N(C(=O)NCc1ccon1)C1CC1 (stereo unspecified) .
Solution: 1.88%

Problem: Now consider CC(C)CS(=O)(=O)N1C[C@@H]2C[C@H](C(=O)NCc3ccccc3)[C@H](C1)O2 .
Solution: 75.33%

* * *

# System: Plasmodium berghei
# assayDetails: Screen against P. berghei liver stage (PbLuc), transformed with Luciferase, at 2uM
# Assay type: functional, HepG2
# experimentalSetup: tested at 2 uM
About 2,700 (4%) of roughly 68,000 compounds showed an effect of 50% or more. This is one part of a sample in which strong results are shown more often than they occur.
Consider the following compounds; for each one, report its INHIBITION.

Problem: Request: INHIBITION, test system Plasmodium berghei, entry Cc1nc(C2CCCN(C(=O)c3ccc(OCC4CC4)nc3)C2)no1 (stereo not drawn)
Solution: 28.65%

Problem: Now consider Cc1nc(N)cc(C2CCN2CCOc2ccccc2)n1 (stereo not drawn) .
Solution: -43.34%

Problem: Now consider CC(C)(CN1CCOCC1)CN1CCC(Cc2cccc(CO)c2)C1 (stereo not drawn) .
Solution: -7.7%

* * *

Consider the following compounds; for each one, report its INHIBITION.
# Tested on: Plasmodium berghei
# assayDetails: Screen against P. berghei liver stage (PbLuc), transformed with Luciferase, at 2uM
# Type: functional, HepG2
# experimentalSetup: tested at 2 uM
The whole screen tested about 68,000 compounds, of which about 2,700 (4%) showed an effect of 50% or more. The sample as a whole holds a higher share of strong results than the screen did.
Give a bare numeral; the unit % is implied.

Problem: Request: INHIBITION, test system Plasmodium berghei, entry Cc1nc(C)n(CCC(=O)N2CCc3ncc(Cl)cc3C2)n1
Solution: 40.31

Problem: Now consider CC1(C)CCN(S(=O)(=O)N2CCCC(c3cccc(C(=O)O)c3)C2)CC1 (stereo not given) .
Solution: 19.04

Problem: Now consider CSc1nc2ccsc2c(=O)n1CC(=O)N1CCCCC1C (stereo not given) .
Solution: -24.07

Problem: Now consider Cc1nc(C)n(CC(=O)N2CCc3ncc(Cl)cc3C2)n1 .
Solution: 44.9

Problem: Now consider CN1CCN(S(=O)(=O)c2ccc(C(=O)N3CC[C@@H](O)C3)cc2)CC1=O .
Solution: -27.61

* * *

# System: Plasmodium berghei
# assayDetails: Screen against P. berghei liver stage (PbLuc), transformed with Luciferase, at 2uM
# Type: functional, HepG2
# experimentalSetup: tested at 2 uM
About 2,700 (4%) of roughly 68,000 compounds showed an effect of 50% or more. This is one part of a sample in which strong results are shown more often than they occur.
Consider the following compounds; for each one, report its INHIBITION.
Give a bare numeral; the unit % is implied.

Problem: Reported INHIBITION, compound CCOCCN1CCN(Cc2nnc(C3CC3)o2)CC1C (stereo not given) : ____
Solution: -19.75

Problem: Now consider Cc1noc(C(C)C)c1C(=O)NCCN1CCOCC1 .
Solution: 32.63

Problem: Now consider Cc1noc(C)c1C(=O)NCCN1CCN(S(C)(=O)=O)CC1 .
Solution: -41.64

Problem: Now consider CCc1nc2n(n1)CC(NCc1nc(-c3cccnc3)no1)CC2 (stereo not given) .
Solution: 41.71

Problem: Now consider CCOCCN1CCN(Cc2nnc(C3CC3)o2)CC1CC (stereo not given) .
Solution: -0.55
